All values here come from patent US20250092065A1.

- System: Target C
- assay_notes: RT-qPCR canonical junction panel assay, Target C mRNA
- Assay type: cell-based
- experimental_conditions: Table 4, read-out: Target C IC50 (decrease in CJ mRNA levels)
Let's look at some molecules and their measured IC50.

// known answers, use as guide
{"columns": ["molecule", "assay_system", "IC50"],
 "data": [
  ["Cc1nc2c(C)c(O)c(-c3ccc4nc(N5CC[C@H](NC6(C)CC6)C5)ccc4n3)cc2o1 (single isomer, unassigned)", "Target C", "100 to 1000 nM"],
  ["Cc1nc2c(F)cc(-c3ncc4cc(N5C[C@@H](C)N[C@@H](C)C5)ccc4n3)cn2n1", "Target C", "1000 to 10000 nM"],
  ["Cc1nc2cc(O)c(-c3ccc4cc(N5CC[C@H](NC(C)(C)C)C5)ncc4n3)cc2o1", "Target C", "1000 to 10000 nM"],
  ["Cn1cc2cc(-c3ccc4nc(C5CCNC6(CC6)C5)ncc4n3)c(O)cc2n1 (centres unmarked)", "Target C", "1000 to 10000 nM"]
]}

## Input What value of IC50 has been recorded for this entry: `Cc1cn2cc(-c3ncc4cc(N5C[C@@H](C)N(C)[C@@H](C)C5)ccc4n3)cc(F)c2n1`
## Output 1000 to 10000 nM

## Input Return reported IC50; argument: `CNC(=O)c1nc(-c2cc3cn(C)nc3c(F)c2O)nc2ccc(N3CCNCC3)cc12`
## Output 100 to 1000 nM

###

- Tested on: K562 cells
- assay_notes: Cell Titer Glo 2.0 cell viability (toxicity) assay, K562
- experimental_conditions: 500 cells/well, 72 hours
recorded_metric: Effect of Exemplary Compounds on Cell Viability, K562

Please review the following examples before continuing.
{"columns": ["compound", "result"],
 "data": [
  ["CNC(=O)c1nc(-c2cc3cn(C)nc3c(C)c2O)nc2ccc(N3CCC(N(C)C)CC3)cc12 [Compound 507]", "A (A represents <100 nM)"],
  ["Cn1cc2cc(-c3ncc4nc(C5CCNCC5)ccc4n3)c(O)c(F)c2n1 [Compound 155]", "A (A represents <100 nM)"],
  ["Cn1cc2cc(-c3ccc4nc(N5CC[C@@H](NC6(C)CC6)C5)ccc4n3)c(O)c(F)c2n1 [Compound 223]", "A (A represents <100 nM)"],
  ["Cn1cc2cc(-c3ccc4cc(C5CCNCC5)ccc4n3)c(O)c(F)c2n1 [Compound 241]", "A (A represents <100 nM)"],
  ["C[C@@H]1CN(c2ccc3nc(-c4cc5cn(C)nc5cc4O)ncc3c2)C[C@@H](C)N1 [Compound 753]", "A (A represents <100 nM)"],
  ["CNC(=O)c1nc(-c2cc3cn(C)nc3c(C)c2O)nc2ccc(N3C[C@H](C)N[C@@H](C)C3)cc12 [Compound 652]", "A (A represents <100 nM)"],
  ["C[C@H]1C[C@@H](c2ccc3nc(-c4cc5cn(C)nc5c(F)c4O)ccc3n2)CCN1 (single isomer, unassigned) [Compound 383]", "A (A represents <100 nM)"],
  ["Cc1cn2cc(-c3ncc4cc(N5C[C@H](C)N[C@@H](C)C5)ccc4n3)cc(F)c2n1 [Compound 803]", "A (A represents <100 nM)"]
]}

Proceed to the following item.
## Input If you can, please state the reported Effect of Exemplary Compounds on Cell Viability, K562 value of Cc1nc2c(F)c(O)c(-c3ccc4nc(N5CC[C@@H](NCC6CC6)C5)ccc4n3)cc2o1 (single isomer, unassigned) [Compound 323] .
## Output A (A represents <100 nM)

###

- Tested on: MYB
- assay_notes: HiBiT protein abundance assay, MYB (K562 HiBiT knock-in)
- Type: cell-based, human
- experimental_conditions: HiBiT knock-in K562 cells, 24 hours, top dose 10 μM
# IC50 values compiled below

Recorded IC50, per entry:
{"columns": ["compound", "assay_system", "IC50"],
 "data": [
  ["C[C@H]1C[C@H](c2ccc3nc(-c4cc5cn(C)nc5c(F)c4O)ccc3n2)CCN1 (single isomer, unassigned)", "MYB", "< 0.1 µM"],
  ["Cc1c(O)c(-c2ccc3nc(N4CC[C@@H](NC5CC5)C4)ncc3n2)cc2cn(C)nc12", "MYB", "0.1 to 1 µM"],
  ["CN[C@@H]1CCN(c2ccc3nc(-c4cn5cc(C)nc5c(C)c4O)ncc3n2)C1 (single isomer, unassigned)", "MYB", "0.1 to 1 µM"],
  ["Cc1c(O)c(-c2ccc3nc(N4CCC(NC5(C)CC5)C4)ccc3n2)cc2cn(C)nc12 (stereo not drawn)", "MYB", "< 0.1 µM"],
  ["Cn1cc2cc(-c3ccc4cc(C5CCNCC5)ccc4n3)c(O)c(F)c2n1", "MYB", "< 0.1 µM"],
  ["CNC(=O)c1nc(-c2cc3cn(C)nc3c(F)c2O)nc2ccc(N3C[C@@H](C)N[C@@H](C)C3)cc12", "MYB", "< 0.1 µM"],
  ["COCc1nc2cc(O)c(-c3ccc4nc(N5CCC(NC(C)(C)C)C5)ccc4n3)cc2o1 (stereo not drawn)", "MYB", "0.1 to 1 µM"],
  ["Cc1nc2c(F)c(O)c(-c3ccc4nc(N5CC[C@@H](NC(C)C)C5)ccc4n3)cc2o1 (single isomer, unassigned)", "MYB", "< 0.1 µM"],
  ["Cc1c(O)c(-c2ncc3cc(N4C[C@@H](C)N[C@H](C)C4)ccc3n2)cc2cn(C)nc12 (single isomer, unassigned)", "MYB", "< 0.1 µM"],
  ["CNC(=O)c1nc(-c2cc3cn(C)nc3c(F)c2O)nc2ccc(N3CCN[C@@H](C)C3)cc12", "MYB", "< 0.1 µM"]
]}

## Input GET /values?readout=IC50&item= `Cc1nc2c(C)c(O)c(-c3ccc4nc(N5CC[C@H](NC(C)(C)C)C5)ncc4n3)cc2o1`
## Output 0.1 to 1 µM

###

A collection of compounds and their measured IC50
- Test system: HTT mRNA
- assay_notes: RT-qPCR splicing assay, HTT mRNA canonical (CJ) and alternative (AJ) junction
- Assay type: cell-based, human
- experimental_conditions: Homo sapiens, HTT canonical junction mRNA, RT-qPCR; read-out: HTT CJ (decrease in CJ mRNA levels, IC50)

{"columns": ["compound", "assay_system", "IC50"],
 "data": [
  ["Cc1c(O)c(-c2nc(-c3nn[nH]n3)c3cc(N4CCNCC4)ccc3n2)cc2cn(C)nc12", "HTT mRNA", "1 to 10 µM"],
  ["COc1cc2nc(C3CCNCC3)ccc2nc1-c1cc2c(C)nc(C)cn2n1", "HTT mRNA", "1 to 10 µM"]
]}

## Input Form field: reported IC50 of Cc1nc2c(C)c(O)c(-c3ccc4nc(N5CC[C@@H](NCC6CC6)C5)ccc4n3)cc2o1 (single isomer, unassigned)
## Output < 0.1 µM

## Input Please give the measured IC50 for this compound: CN[C@@H]1CCN(c2ccc3nc(-c4cn5cc(C)nc5c(C)c4O)ncc3n2)C1 (single isomer, unassigned)
## Output 0.1 to 1 µM

###

- System: MYB
- assay_notes: HiBiT protein abundance assay, MYB (K562 HiBiT knock-in)
- Format: cell-based, human
- experimental_conditions: HiBiT knock-in K562 cells, 24 hours, top dose 10 μM
pIC50: −log10 of the molar value.
Listing of recorded pIC50 by entry.

{"columns": ["molecule", "pIC50"],
 "data": [
  ["Cc1nc2c(F)c(O)c(-c3ccc4nc(N5CC[C@@H](NC6(CF)CC6)C5)ccc4n3)cc2o1 (single isomer, unassigned)", "> 7.00"],
  ["Cn1cc2nc(-c3ccc4nc(N5CCC(NC(C)(C)C)C5)ccc4n3)c(F)cc2n1 (stereo not drawn)", "5.00 to 6.00"],
  ["Cn1cc2cc(-c3ccc4nc(N5CCNC(C)(C)C5)ccc4n3)c(O)cc2n1", "5.00 to 6.00"],
  ["Cc1c(O)c(-c2ccc3nc(N4CC[C@H](NC(C)C)C4)ccc3n2)cc2cn(C)nc12", "> 7.00"],
  ["O=C(Nc1cn[nH]c1)Nc1cc2nc(N3CCNCC3)ccc2cn1", "< 5.00"],
  ["Cc1nc2cc(O)c(-c3ccc4nc(N5CCN[C@@H](C6CC6)C5)ccc4n3)cc2o1", "6.00 to 7.00"],
  ["C[C@H]1CN(c2ccc3nc(-c4cc5cn(C)nc5cc4O)ncc3c2)C[C@H](C)N1", "> 7.00"],
  ["Cc1nc2c(F)c(O)c(-c3ccc4nc(N5CC[C@@H](NC6CCC6)C5)ccc4n3)cc2o1 (single isomer, unassigned)", "> 7.00"]
]}

## Input Test system MYB; read-out pIC50; what value for `Cn1cc2cc(-c3ccc4nc(N5CC[C@H](N[C@H]6C[C@@H](F)C6)C5)ccc4n3)c(O)cc2n1` ?
## Output > 7.00

## Input For the record COc1cc2nc(C)oc2cc1-c1ccc2nc(N3CCC(NC(C)(C)C)C3)ccc2n1 (stereo not drawn) , what value of pIC50 is listed for MYB?
## Output 5.00 to 6.00

## Input Enter reported pIC50 observed with MYB for `Cn1cc2cc(-c3ccc4nc(OC5CNC5)ccc4n3)c(O)cc2n1`
## Output 6.00 to 7.00

## Input Record `Cc1c(O)c(-c2nc(-c3nn[nH]n3)c3cc(N4CCNCC4)ccc3n2)cc2cn(C)nc12` : what is its pIC50 with MYB?
## Output < 5.00
